Target: biotinylated histone H3K9me3 peptide
Assay: pull-down + far-Western, overlay or dot blot
parameterMeasured: Kd (µM)
Expressed in µM, but write only the number.

## Task Write down Kd measured for item GST tagged recombinant chromodomain (PfCD) of the chromodomain-containing protein PfCDP, wild type (domain or fragment) NEVFEVEKIIMARYKLNCKRKKNRKDENLDDFEFYIKWKNYDSDENTWEPFENLSPNLKGQARKVAL
## Result 0.038
